Origin of values: patent US7329737

The binders listed here are annotated with their koff.
- tested.system: T1, hK1 (human tissue kallikrein 1), recombinant (human, UniProt P06870 25-262)
- T1 construct: Expressed in P. pastoris from KLK1 cDNA and purified; enzymatically active; also called KLK1; Recombinant (Pichia) Kallikrein
- experimental.protocol: SPR
Write the value in s⁻¹ as a bare number.

Request the reported koff associated with M0094-E08 (Fab, V domains shown) VH: EVQLLESGGGLVQPGGSLRLSCAASGFTFSFYAMVWVRQAPGKGLEWVSYISPSGGATWYADSVKGRFTISRDNSKNTLYLQMNSLRAEDTAVYYCAKPSRPRYYYDSSGYYSSAFDIWGQGTMVTVSS VL: AQSVLTQPASVSGSPGQSITISCTGTSSDVGAYNYVSWYQQHPGKVPELMIYDVSNRPSGVSHRFSGSKSGNTASLTISGLQAEDDADYYCSSFTSRKTWVFGTGTKVTVLG
0.00053

Find the recorded koff belonging to M0114-E02 (Fab, V domains shown) VH: EVQLLESGGGLVQPGGSLRLSCAASGFTFSHYKMMWVRQAPGKGLEWVSYIYPSGGWTGYADSVKGRFTISRDNSKNTLYLQMNSLRAEDTAVYYCARVGPWDAFDIWGQGTMVTVSS VL: DIQMTQSPATLSLSPGERATLSCRASQSVGGYLAWYQQKPGQAPRLLIYDASKRATGIPARFSGSGSGTDFTLTISSLEPEDFAVYYCQQRSKWPPYTFGQGTKLEIKR and report it.
0.00936

Then there is this binder:
Given the entry M0113-E03 (Fab, V domains shown) VH: EVQLLESGGGLVQPGGSLRLSCAASGFTFSRYTMFWVRQAPGKGLEWVSGIYPSGGKTIYADSVKGRFTISRDNSKNTLYLQMNSLRAEDTAVYYCATGGVFGVVDYWGQGTLVTVSS VL: DIQMTQSPSSLSASVGDRVTITCRASQSINSYLNWYQQKPGKAPNLLIYAASSLQNGVPSRFSGSGSGTDFTLTISSLQPEDFAAYYCQQSYSTPLTFGGGTKVEIKR , report its measured koff.
500
